meta.source: patent US10829446B2

Notes on pIC50 obtained with MOZ enzyme (Homo sapiens (Human), UniProt Q92794).
Sequence (Q92794 whole entry, species assumed): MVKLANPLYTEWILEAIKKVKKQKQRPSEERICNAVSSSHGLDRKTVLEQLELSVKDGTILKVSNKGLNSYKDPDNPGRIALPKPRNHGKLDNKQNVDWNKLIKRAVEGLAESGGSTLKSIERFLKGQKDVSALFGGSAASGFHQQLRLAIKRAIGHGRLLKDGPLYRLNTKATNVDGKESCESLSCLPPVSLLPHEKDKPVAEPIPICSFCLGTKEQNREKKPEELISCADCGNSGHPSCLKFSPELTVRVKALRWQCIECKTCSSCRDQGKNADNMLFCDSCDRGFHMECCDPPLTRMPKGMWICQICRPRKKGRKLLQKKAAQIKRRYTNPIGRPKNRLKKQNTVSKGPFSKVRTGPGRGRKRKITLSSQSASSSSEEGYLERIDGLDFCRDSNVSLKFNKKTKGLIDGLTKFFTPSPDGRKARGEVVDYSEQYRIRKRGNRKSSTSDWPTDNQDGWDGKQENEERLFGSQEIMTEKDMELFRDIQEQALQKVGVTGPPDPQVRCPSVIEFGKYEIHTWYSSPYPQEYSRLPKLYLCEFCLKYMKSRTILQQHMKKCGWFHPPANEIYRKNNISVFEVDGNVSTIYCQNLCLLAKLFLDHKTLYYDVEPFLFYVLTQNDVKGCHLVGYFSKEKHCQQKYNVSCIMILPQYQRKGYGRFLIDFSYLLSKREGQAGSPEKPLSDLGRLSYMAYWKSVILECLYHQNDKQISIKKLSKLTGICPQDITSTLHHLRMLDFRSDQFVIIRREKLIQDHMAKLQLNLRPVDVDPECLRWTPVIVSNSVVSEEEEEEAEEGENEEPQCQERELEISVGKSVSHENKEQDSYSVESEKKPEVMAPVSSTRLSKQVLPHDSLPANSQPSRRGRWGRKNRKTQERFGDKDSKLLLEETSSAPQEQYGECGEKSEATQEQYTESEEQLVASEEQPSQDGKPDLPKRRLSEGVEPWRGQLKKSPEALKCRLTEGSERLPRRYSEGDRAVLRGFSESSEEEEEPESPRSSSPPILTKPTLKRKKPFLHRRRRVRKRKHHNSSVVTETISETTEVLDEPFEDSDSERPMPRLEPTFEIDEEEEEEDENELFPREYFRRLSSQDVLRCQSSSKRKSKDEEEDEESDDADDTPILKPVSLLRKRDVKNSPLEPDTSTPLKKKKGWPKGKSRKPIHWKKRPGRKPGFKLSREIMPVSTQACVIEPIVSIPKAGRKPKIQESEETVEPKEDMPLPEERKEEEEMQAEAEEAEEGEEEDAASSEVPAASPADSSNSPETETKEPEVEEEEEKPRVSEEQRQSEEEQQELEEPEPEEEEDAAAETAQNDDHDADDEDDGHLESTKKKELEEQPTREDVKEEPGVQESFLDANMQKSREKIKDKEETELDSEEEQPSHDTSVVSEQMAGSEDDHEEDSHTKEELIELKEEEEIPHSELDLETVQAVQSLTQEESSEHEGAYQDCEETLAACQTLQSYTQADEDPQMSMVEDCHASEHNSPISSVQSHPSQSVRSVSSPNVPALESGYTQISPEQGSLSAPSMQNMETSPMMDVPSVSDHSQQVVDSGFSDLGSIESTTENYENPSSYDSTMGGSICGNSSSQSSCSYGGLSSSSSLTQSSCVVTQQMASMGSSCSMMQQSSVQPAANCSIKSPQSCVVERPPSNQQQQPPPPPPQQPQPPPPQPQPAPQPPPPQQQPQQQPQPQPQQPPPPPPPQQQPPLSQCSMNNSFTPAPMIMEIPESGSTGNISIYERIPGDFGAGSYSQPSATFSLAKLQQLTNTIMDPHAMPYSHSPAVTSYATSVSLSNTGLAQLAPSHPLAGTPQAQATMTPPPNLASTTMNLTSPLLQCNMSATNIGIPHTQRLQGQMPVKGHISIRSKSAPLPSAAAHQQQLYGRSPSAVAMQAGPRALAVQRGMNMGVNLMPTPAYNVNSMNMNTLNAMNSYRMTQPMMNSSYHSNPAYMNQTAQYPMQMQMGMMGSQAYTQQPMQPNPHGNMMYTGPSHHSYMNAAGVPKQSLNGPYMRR
Conceptually, pIC50 converts a concentration in mol/L into minus its log10.

O=C(NNS(=O)(=O)c1ccccc1)c1cccc(-c2cccs2)c1 = 6.33
O=C(NNS(=O)(=O)c1ccccc1)c1cncc(-c2ccccc2)c1 = 4.67
Cc1cccc(C(=O)NNS(=O)(=O)c2ccc3ccccc3c2)c1F = 6.71
N#Cc1cccc(-c2cccc(C(=O)NNS(=O)(=O)c3ccccc3)c2)c1 = 5.07
Cc1cc(-n2cccn2)c(F)c(C(=O)NNS(=O)(=O)c2ccccc2)c1F = 7.15

Considering Cc1cccc(C(=O)NNS(=O)(=O)c2ccc3ccccc3c2)c1 , its pIC50 with MOZ enzyme (Homo sapiens (Human), UniProt Q92794) was recorded as 5.75

Considering O=S(=O)(NNCc1cccc(-c2cccc(Cl)c2)c1)c1ccccc1 , its pIC50 with MOZ enzyme (Homo sapiens (Human), UniProt Q92794) was recorded as 4.04

Considering O=C(NNS(=O)(=O)c1ccccc1)c1ccnc(-c2ccccc2)c1 , its pIC50 with MOZ enzyme (Homo sapiens (Human), UniProt Q92794) was recorded as 4.72

Considering O=C(NNS(=O)(=O)c1ccccc1)c1cc(-c2ccccc2)cc(Cl)c1F , its pIC50 with MOZ enzyme (Homo sapiens (Human), UniProt Q92794) was recorded as 7.09

Considering O=C(NNS(=O)(=O)c1ccccc1)c1cccc(-c2ccc(Cl)cc2)c1 , its pIC50 with MOZ enzyme (Homo sapiens (Human), UniProt Q92794) was recorded as 4.59

Considering O=C(NNS(=O)(=O)c1ccccc1F)c1cccc(OCC2CC2)c1 , its pIC50 with MOZ enzyme (Homo sapiens (Human), UniProt Q92794) was recorded as 6.94
